# Organism: Rattus norvegicus
# experiment-description: Open TG-GATES - Regimen: Daily Repeat
# Format: toxicity, organism-based, Sprague-Dawley
# Parameters: regimen Daily Repeat, gender Male, age 6 weeks
# experimental-context: in vivo, po, 1000 mg/kg, 72 h, tissue Plasma, route gavage, dose level High, time 3 day

- compound: "O=C(O)c1cccnc1"
  Cl: "104.2 meq/L"
- compound: "CC(C)(S)[C@@H](N)C(=O)O"
  Cl: "105.8 meq/L"
- compound: "O=C(N[C@H](CO)[C@H](O)c1ccc([N+](=O)[O-])cc1)C(Cl)Cl"
  Cl: "106.8 meq/L"
- compound: "CCN1CCCC1CNC(=O)c1cc(S(N)(=O)=O)ccc1OC (centres undefined) [SULPIRIDE]"
  Cl: "103.4 meq/L"

---

# Species: Rattus norvegicus
# experiment-description: Open TG-GATES - Regimen: Daily Repeat
# Assay type: toxicity, organism-based, Sprague-Dawley
# Set-up: regimen Daily Repeat, gender Male, age 6 weeks
# experimental-context: in vivo, po, 0 mg/kg, […], tissue Blood, route gavage, dose level Control, time 14 day
Measured Plat of individual entries

- compound: "CN1C(=O)OC(C)(C)C1=O"
  Plat (x10_4/uL): 127.4
- compound: "CCN1CCCC1CNC(=O)c1cc(S(N)(=O)=O)ccc1OC (stereo unspecified) [SULPIRIDE]"
  Plat (x10_4/uL): 112.7
- compound: "Oc1ncnc2[nH]ncc12"
  Plat (x10_4/uL): 97.7
- compound: "CC(=O)Oc1cc(C(C)C)c(OCCN(C)C)cc1C"
  Plat (x10_4/uL): 118
- compound: "CCSCC[C@H](N)C(=O)O"
  Plat (x10_4/uL): 114.5
- compound: "CC(C)(S)[C@@H](N)C(=O)O"
  Plat (x10_4/uL): 122.3

---

# Species on record: Rattus norvegicus
# experiment-description: Open TG-GATES - Regimen: Daily Repeat
# Type: toxicity, organism-based, Sprague-Dawley
# Parameters: regimen Daily Repeat, gender Male, age 6 weeks
# experimental-context: in vivo, po, 0 mg/kg, 72 h, tissue Blood, route gavage, dose level Control, time 3 day

- compound: "CC(=N)S [THIOACETAMIDE]"
  Ret (%): 7
- compound: "C#C[C@]1(O)CC[C@H]2[C@@H]3CCc4cc(O)ccc4[C@H]3CC[C@@]21C [ETHINYL ESTRADIOL]"
  Ret (%): 7.8
- compound: "Nc1nc(N)c2nc(-c3ccccc3)c(N)nc2n1"
  Ret (%): 6.2
- compound: "CC(C)(S)[C@@H](N)C(=O)O [PENICILLAMINE]"
  Ret (%): 7.1
- compound: "CCSCC[C@H](N)C(=O)O [ETHIONINE]"
  Ret (%): 5.9
- compound: "Oc1ncnc2[nH]ncc12 [ALLOPURINOL]"
  Ret (%): 7.7
- compound: "C[C@]12CCC(=O)C=C1CC[C@@H]1[C@@H]2CC[C@@]2(C)[C@H]1CC[C@]2(C)O [METHYLTESTOSTERONE]"
  Ret (%): 6.7
- compound: "O=C(O)c1cccnc1 [NIACIN]"
  Ret (%): 7.8
- compound: "CCN1CCCC1CNC(=O)c1cc(S(N)(=O)=O)ccc1OC (stereo unspecified) [SULPIRIDE]"
  Ret (%): 6.9
- compound: "O=C(N[C@H](CO)[C@H](O)c1ccc([N+](=O)[O-])cc1)C(Cl)Cl [CHLORAMPHENICOL]"
  Ret (%): 7
- compound: "CCc1oc2ccccc2c1C(=O)c1cc(I)c(O)c(I)c1 [BENZIODARONE]"
  Ret (%): 6.2
- compound: "CC(=O)Oc1cc(C(C)C)c(OCCN(C)C)cc1C [MOXISYLYTE]"
  Ret (%): 6.2
- compound: "CC(C)C(=O)Nc1ccc([N+](=O)[O-])c(C(F)(F)F)c1 [FLUTAMIDE]"
  Ret (%): 5.4
- compound: "C[C@](N)(Cc1ccc(O)c(O)c1)C(=O)O [METHYLDOPA]"
  Ret (%): 7.9
- compound: "CN1C(=O)OC(C)(C)C1=O [TRIMETHADIONE]"
  Ret (%): 7.2
- compound: "CCC(C)(C)C(=O)O[C@H]1C[C@@H](C)C=C2C=C[C@H](C)[C@H](CC[C@@H]3C[C@@H](O)CC(=O)O3)[C@H]21 [SIMVASTATIN]"
  Ret (%): 6.5
